- Test system: K4 kissing-loop RNA reporter;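 also: bound reporter read as fluorescence of individual clusters on recovered sequencing chips by microscopy, with normalized cluster intensities fitted with a binding model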
- METHOD DESCRIPTION: apparent KD of K4 kissing-loop reporter; higher = weaker reporter binding
- CONDITION SET: Eterna round: R107; input ligand: theophylline 20 uM
I'd appreciate it if you could supply apparent KD of K4 kissing-loop reporter values for the items below.
Report the figure in nM without appending any unit label.

Supply measured apparent KD of K4 kissing-loop reporter of `UGCAUGCUUGUAGUGAUGUUACAAGAUGAUACCAGUGCUUUUUUGCACCCUUGGCAGCGUCAUAGUGCAUGCACGUCGAAAGACG` in your reply. 320

Provide only the value of recorded apparent KD of K4 kissing-loop reporter for ACGAUUUACAGAAGGAGCGUGUAUUUAACUACAAUUAUCUUAGCGAGUGAUGUUCGUUUUACACAGGUAGGUCGCUGUAUAUCGA [JR_ExcArginiB_Sub011] 374

Please list apparent KD of K4 kissing-loop reporter recorded for the sequence AUAGGAGUGAUGUUCCUUAGUCUCUCCGAUACCAGUAUGGAAACAUACCCUUGGCAGCGGUAGACCGCAGAUUAGGAAACUAGUC [Theophylline A K4 3] 503

Please give measured apparent KD of K4 kissing-loop reporter of the following entry: UGGAUAUAGUGAUGUUAUAUAGAGAUUGAUACCAGUUAAGAGAAUAGCCCUUGGCAGCAGAAAGAAGUAUCAUUAGAGAAGAAUG [ExTheophyl.Ac] 213

Indicate the recorded apparent KD of K4 kissing-loop reporter value for this sequence: GUAUCGCUAGGAGGAUAUUUCAAUUCGCCUAUAAAAGGUGAUACGGAGUGAUGUUCCGAUUUACGGAAAGAAGGCCUAGUGAUAC [FMN B 9] 262

Give the reported value of apparent KD of K4 kissing-loop reporter for this record: UGAUUUAACUGAAGGAGCGGCAAUUGAUAAGUAAAUAUAGUGAUGUUAUAUAAGAUAGAGAGCCAGGUAGGUCGCAGAGGUAGGA [ExArgB.K] 178

Report apparent KD of K4 kissing-loop reporter, nothing else, for this sequence: `GGUAGCAUGGCGGCCGCCACUAGAUCAGUGAUGUUGAUCCCGCCGUCUUACGGCGAGUCAGAGGCUAGGACCGGGCCAUGCUACC` 590

Fill in apparent KD of K4 kissing-loop reporter for record UCCUUAUCGCGGUCAUAAAGCCUAUAAAACAAGGAUAUCUCAUCAGAGAGAAGGUGUGAGUGAUGUUCAAAGGCCACCACGGGUU [theeternabot_sameState_KL_FMN_A_47] 453

Retrieve apparent KD of K4 kissing-loop reporter measured for `GGAAGGAAGGGAAGGAGCGCGCAGGCAGUGAUGUUGCCAAACAAAACAAACAAAACAAAAGCGCAGGUAGGUCGCCCGAAGGACG` and print it. 126

Provide one value: measured apparent KD of K4 kissing-loop reporter of CGUAGUUGGGCGGCCGCCACUUGAAAAGCUUUGCCAAAGGCAGAGCUCUAGAGUGAUGUUCUGGCAAGGACCGGGUCCAACUACA [#03 K4 Tryptophan B Same State] 590

Given the sequence GUCAGACCGGGACUCCAGUGAUGUUGGAGGCAGGAUAUCCAGUCGAGGAGAAGGGCCAGGGAUAUCGAGCUGCUCGGUUUGUAGU [Xexezaes] , write its reported apparent KD of K4 kissing-loop reporter. 102

// fetch apparent KD of K4 kissing-loop reporter given entry AUUCAUUUCAGAGGAUAUCGAUGGAGAGUGAUGUUCUCCCAUAGCCAGUGAUGUUGGCUAGCUAUUCGAGAAGGCUGUGGGUGGA [Same State FMN B GF 27] 202

###

- Test system: MS2 coat protein
- METHOD DESCRIPTION: apparent KD of MS2 coat protein; designed switch direction (-1 OFF switch, 1 ON switch): 1; higher = weaker reporter binding
- CONDITION SET: input ligand: none
For each record, write down the corresponding apparent KD of MS2 coat protein.
Give your result as the value with the unit written after it.

Consider the sequence GUGGUCAGACAUGAGGAUCACCCAUGUGGAAUAAAUAACAGACAGGAUAUCGAAUAUAGGAUAUAUGAGAAGGGUCGAUUGGUG (Eterna round: R96, puzzle: Same State NG 3) and give its recorded apparent KD of MS2 coat protein. 0.0907 µM

Supply measured apparent KD of MS2 coat protein of GGUAGGUUACUACCAAACUACAUGAGGAUCACCCAUGUGUGGAAGGAUAUGGUACCUAUUUGGUACCAGAAGGUCCAAUUAAUU [Fiskers NG3ss - 5] (Eterna round: R96, puzzle: Same State NG 3) in your reply. 0.122 µM

In one line, give reported apparent KD of MS2 coat protein of the entry ACAUGAGAGAUAGGAUAUGCUGUACCUACAUGUGACAUGAGGAUCACCCAUGUGGUAAGUAUGAGGCAGAAGGAUCAGAUAUGU [Equivalence 49 - Jieux - Same State NG 2] (Eterna round: R96, puzzle: Same State NG 2) . 0.0232 µM

Specify reported apparent KD of MS2 coat protein for the sequence shown: GCGAAAUGAUGAAACAUGAGGAUCACCCAUGUAACGAGAGAUGAGGAUAUCGGAAAGGGAGGAGACGAGAAGGCAUGGUCACGC [AK SSNG3-V2-25.1] (Eterna round: R96, puzzle: Same State NG 3) 0.0587 µM

// Input: UUAUUAUUUACAUGAGGAUCACCCAUGUUUUUAUGUCAGAGACAGGAUAUAGUAGUCUCGUUUUACUAGAAGGGUCUUUUUAUU [JR_SSNG3_Sub017] (Eterna round: R96, puzzle: Same State NG 3) . Output its apparent KD of MS2 coat protein only. 0.0221 µM

Identify the reported apparent KD of MS2 coat protein for the following entry. GCCGGCUGGUGAGGAUAUGGCACCUUAUUGGUGCCAGAAGGCAUGUCAAUUGACAUGAGGAUCACCCAUGUAUUAUAGUUGGCG [salish99_SSNG1_r04_605] (Eterna round: R96, puzzle: Same State NG 1) 0.0561 µM

Indicate the recorded apparent KD of MS2 coat protein value for this sequence: GCUGCAAUAAACGCCUACAUGAGGAUCACCCAUGUAUGUAGGCAGGAUAUCGUUUGCAAAGCAAACGAGAAGGGCCGUAGUAGC [Mat - Same State NG 3 - JL Mod - D35] (Eterna round: R96, puzzle: Same State NG 3) 0.0661 µM

Answer with the recorded apparent KD of MS2 coat protein for the sequence listed here: GGUAGGUUACUACCAAACAACAUGAGGAUCACCCAUGUGUGGAAGGAUAUGGUACCUAUUUGGUACCAGAAGGUCCAAUUAAUU [Fiskers NG3ss - 4] (Eterna round: R96, puzzle: Same State NG 3) 0.0631 µM

Note down apparent KD of MS2 coat protein recorded for UGGCUCAGACGAGGAUAUAUGUCUCGAGCUUCGGCUCGAGACAUGAGGAUCACCCAUGUAAUAACAUAGAAGGUGUCUGAGCCA [SSNG2/1-C2] (Eterna round: R96, puzzle: Same State NG 2) 0.263 µM

###

Kindly state apparent KD of MS2 coat protein for each of the entries shown.
- Test system: MS2 coat protein
- METHOD DESCRIPTION: apparent KD of MS2 coat protein; designed switch direction (-1 OFF switch, 1 ON switch): -1; higher = weaker reporter binding
- CONDITION SET: Eterna round: R95; input ligand: microRNA oligo, concentration not stated
Form entry: value (nM) — number only.

Consider the sequence UCAUGGUAGCAGGAUAUGCUUGUUUUUUUUUUUGCAGAAGGGCUUACAUGAGGAUCACCCAUGUGUUAGGUCUA [JR_E6_Sub067] (puzzle: Exclusion 6) . State its measured apparent KD of MS2 coat protein. 27.6

For AUAUGCAAGUAAAGAUCCUACAUGAGGAUCACCCAUGUGCUCGUCUUAUAAAGUACUAUCACGAAAGUGAUAGUACA [Mat - Sensor v3 - turn-off var 1 - Eli Mod - D84] (puzzle: Sensor v3, turn-off variant 1) , write its apparent KD of MS2 coat protein. 15.6

Provide apparent KD of MS2 coat protein value for the following sequence: CUUGUAAAUGUGAGGAUAUACUGUUAGUAAAGUUAGUAGAAGGUACAUGAGGAUCACCCAUGUUAAUUACUCUA [JR_BME4_Sub047] (puzzle: Brourd's mod of Exclusion 4) 13.2

Quick one: give measured apparent KD of MS2 coat protein for UUUUACAUCUAUGGGAGUGACAUGAGGAUCACCCAUGUAUGUCUUGUUUUUUGUUCGUCUAGGACUUUCUGAUCAGU [JR_SV3TOV1_Sub033] (puzzle: Sensor v3, turn-off variant 1) 222

Write down apparent KD of MS2 coat protein measured for item GGUUGGCGAGGAUAUACAUGAGGAUCACCCAUGUGAGAAAGAAAAGUGAGGAAGAAAAGUAGAAGGCGCUGACG [Mat - Exclusion 3 - Mod of Salish D2] (puzzle: Exclusion 3) 53.4
